# target: MYT1 protein (Homo sapiens (Human), UniProt Q99640)
# Sequence (Q99640 whole entry): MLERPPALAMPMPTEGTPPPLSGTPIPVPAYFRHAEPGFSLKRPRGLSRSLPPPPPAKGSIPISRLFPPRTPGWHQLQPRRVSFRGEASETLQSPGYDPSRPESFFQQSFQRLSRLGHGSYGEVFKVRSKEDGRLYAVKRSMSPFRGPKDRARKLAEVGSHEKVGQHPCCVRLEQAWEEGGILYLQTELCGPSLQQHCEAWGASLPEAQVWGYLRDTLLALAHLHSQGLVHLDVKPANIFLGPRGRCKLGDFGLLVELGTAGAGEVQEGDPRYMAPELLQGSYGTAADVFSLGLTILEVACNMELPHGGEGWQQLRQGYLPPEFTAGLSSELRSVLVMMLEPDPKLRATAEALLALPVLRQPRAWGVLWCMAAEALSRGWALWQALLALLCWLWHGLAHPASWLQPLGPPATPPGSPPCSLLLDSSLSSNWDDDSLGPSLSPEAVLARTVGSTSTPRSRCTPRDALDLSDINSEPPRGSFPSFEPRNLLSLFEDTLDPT
# procedureText: Test for binding to ATP binding site of MYT1 (Kinase Tracer 178 / Eu-Anti-GST antibody TR-FRET)
# experimentalContext: ATP binding site of MYT1, 30 minutes at room temperature
measurementKind: IC50
Could you kindly put the unit after your number?

Dear colleague, could you please provide IC50 for the compounds listed below?
1. N#CCOc1cc2c(-c3ccc(F)c4[nH]ncc34)c(N)c(=O)[nH]c2c2cccnc12
2. Nc1c(-c2ccc(F)c3[nH]ncc23)c2cc(C3CC3)c3ccccc3c2[nH]c1=O
3. Nc1c(-c2ccc(F)c3[nH]ncc23)c2cc(N3CCN(CC(F)(F)F)CC3)c3cccnc3c2[nH]c1=O
4. CCC(CC)c1cc2c(-c3ccc(F)c4[nH]ncc34)c(N)c(=O)[nH]c2c2cccnc12
5. Nc1c(-c2ccccc2)c2ccccc2[nH]c1=O
6. CC1(C)CC(c2cc3c(-c4ccc(F)c5[nH]ncc45)c(N)c(=O)[nH]c3c3cccnc23)C1
7. Nc1c(-c2ccc(F)c3[nH]ncc23)c2cc(C3=COCC3)c3ncccc3c2[nH]c1=O
8. Nc1c(-c2ccc(Cl)c3[nH]ncc23)c2cc(OC3CCC3)c(F)cc2[nH]c1=O

["1.6 nM", "11 nM", "69 nM", "37 nM", "6200 nM", "46 nM", "8.4 nM", "4.4 nM"]

====

I'd be grateful if you could share measured pIC50 for these entries.
# target: MYT1 protein (Homo sapiens (Human))
# procedureText: Test for binding to ATP binding site of MYT1 (Kinase Tracer 178 / Eu-Anti-GST antibody TR-FRET)
# experimentalContext: ATP binding site of MYT1, 30 minutes at room temperature
Answers are plain numbers, as −log10 of the molar value.

Below, each entry is followed by its recorded pIC50 result.
molecule | pIC50
CN1CC(c2cc3c(-c4ccc(F)c5[nH]ncc45)c(N)c(=O)[nH]c3c3ncccc23)C1 [Compound D30] | 8.54
Nc1c(-c2ccc(F)c3[nH]ncc23)c2cc(C3CCOC3)c3ncccc3c2[nH]c1=O (stereo not shown) [Compound C159] | 8.64
Nc1c(-c2ccc(F)c3[nH]ncc23)c2cc(C3CC3)c3cnccc3c2[nH]c1=O.O=C(O)C(F)(F)F [Compound P4, 2,2,2-trifluoroacetate] | 8.21

Respectfully, I request pIC50 for each entry included below.
1. CC(C)N1CCC(c2ccc3[nH]c(=O)c(N)c(-c4ccc(Cl)c5[nH]ncc45)c3c2)CC1 [Compound A34]
2. Nc1c(-c2ccc(Cl)c3[nH]ncc23)c2cc(C3CCCC3)c3ncccc3c2[nH]c1=O [Compound C151]
3. CC[C@@H](C)Oc1cc2c(-c3ccc(F)c4[nH]ncc34)c(N)c(=O)[nH]c2c2nccnc12 [Compound G14]
4. C=Cc1cc(Cl)cc2c(-c3ccc(Cl)c4[nH]ncc34)c(N)c(=O)[nH]c12 [Compound A23]

1. 7.59
2. 8.00
3. 9.16
4. 7.47

====

# target: MYT1 protein (Homo sapiens (Human))
# procedureText: Test for binding to ATP binding site of MYT1 (Kinase Tracer 178 / Eu-Anti-GST antibody TR-FRET)
# experimentalContext: ATP binding site of MYT1, 30 minutes at room temperature
measurementKind: IC50 (nM)
Give bare numbers, in nM.

Some molecules with recorded IC50:
molecule | measurement
CS(=O)(=O)Nc1cccc(-c2c(N)c(=O)[nH]c3ccc(Cl)cc23)c1 [Compound A46] | 5900
COc1cccc(-c2c(N)c(=O)[nH]c3ccc(Cl)cc23)c1 [Compound A42] | 450
Nc1c(-c2cccc3[nH]ncc23)c2cc(C3CC3)c3ccccc3c2[nH]c1=O [Compound B49] | 6.2

Next:
The measured IC50 associated with N#Cc1cc(Cl)cc2c(-c3ccc(Cl)c4[nH]ncc34)c(N)c(=O)[nH]c12 [Compound A21] reads 20
